# tgt: Dihydroorotate dehydrogenase (quinone), mitochondrial (Homo sapiens)
# Sequence (Q02127 whole entry, the tested form may be a part): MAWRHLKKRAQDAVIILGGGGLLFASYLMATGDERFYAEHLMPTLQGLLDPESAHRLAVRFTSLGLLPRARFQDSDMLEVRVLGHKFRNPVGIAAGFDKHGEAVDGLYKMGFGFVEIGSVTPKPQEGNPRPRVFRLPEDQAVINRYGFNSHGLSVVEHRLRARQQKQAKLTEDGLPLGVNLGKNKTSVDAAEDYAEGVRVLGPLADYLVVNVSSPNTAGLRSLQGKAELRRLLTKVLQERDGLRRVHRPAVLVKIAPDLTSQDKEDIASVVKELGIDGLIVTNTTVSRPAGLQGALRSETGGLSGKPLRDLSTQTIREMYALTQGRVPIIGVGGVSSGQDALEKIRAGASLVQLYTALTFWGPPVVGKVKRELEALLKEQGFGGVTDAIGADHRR
# test: Inhibition of C-terminal His6-tagged human DHODH (30 to 396 residues) expressed in Escherichia coli BL21(DE3) cells using L-DHO as substrate after 20 mins by 2,6-dichloroindophenol reduction based assay
quantity: IC50

Could you share which IC50 value was measured for Cc1nc2cc(OC(F)(F)F)ccc2n1-c1ccc(C(=O)NC2CC2)s1 ?
> 30 µM

###

# tgt: CYP3A4/5 (Homo sapiens, UniProt P08684+P20815)
# test: in vitro
# stated.conditions: liver microsomes, probe midazolam
quantity: pIC50
Note on pIC50: it is the negative log10 of concentration, concentration in mol/L.

What value of measured pIC50 is listed for Cc1c(Cc2ccc(C(F)(F)F)nc2)c[nH]c1C(=O)NC1CC1 ?
5.26

Measured values drawn from ChEMBL document CHEMBL4602703 for this set.
